Each entry below carries its reported pIC50.
measured_target: human JAK1 (Homo sapiens, UniProt P23458)
Construct: catalytic domain, amino acids 866-1154; catalog number PV4774
Sequence (P23458 866-1154): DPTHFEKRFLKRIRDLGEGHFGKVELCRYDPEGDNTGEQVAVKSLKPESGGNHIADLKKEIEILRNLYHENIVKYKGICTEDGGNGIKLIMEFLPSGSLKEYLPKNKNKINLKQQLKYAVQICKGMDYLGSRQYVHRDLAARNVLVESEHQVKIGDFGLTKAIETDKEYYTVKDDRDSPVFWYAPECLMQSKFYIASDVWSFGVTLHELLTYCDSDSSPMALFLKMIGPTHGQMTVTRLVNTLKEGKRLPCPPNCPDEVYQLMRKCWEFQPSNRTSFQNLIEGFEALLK
test_details: JAK1 inhibition assay (polyGT substrate / Ulight-JAK1 peptide)
experimental_setup: recombinant human JAK1 catalytic domain; polyGT or Ulight-JAK1 peptide assay
pIC50: −log10 of the molar value.

The following molecules have reported results that may help.
CCc1cc(N2CC[C@H](F)C2)ncc1N(C)c1cc2c(cn1)ncn2C    7.00 to 11.00
CCc1cc(CNS(=O)(=O)CC)ccc1N(C)c1cc2c(cn1)ncn2C    7.00 to 11.00

So what does the record say about pIC50 for CCc1cc(Cn2ccnc2)ccc1N(C)c1cc2c(cn1)ncn2C ?
7.00 to 11.00

So what does the record say about pIC50 for CN(c1cc2c(cn1)ncn2C)c1ccc(CN(CC#N)S(C)(=O)=O)cc1F ?
7.00 to 11.00

So what does the record say about pIC50 for CCc1cc(-c2ccsc2)ccc1N(C)c1cc2c(cn1)ncn2C ?
7.00 to 11.00

So what does the record say about pIC50 for CCc1cc(-c2cnc(OC3COC3)nc2)ccc1N(C)c1cc2c(cn1)ncn2C ?
7.00 to 11.00

So what does the record say about pIC50 for CCc1cc(C2CCC2)ncc1N(C)c1cc2c(cn1)ncn2C ?
7.00 to 11.00

So what does the record say about pIC50 for CCc1cc(-c2cncc(C(F)(F)F)c2)ccc1N(C)c1cc2c(cn1)ncn2C ?
7.00 to 11.00

So what does the record say about pIC50 for CCc1cc(N2CCC(F)(F)C2)ncc1N(C)c1cc2c(cn1)ncn2C ?
7.00 to 11.00

So what does the record say about pIC50 for COc1cc(-c2cccs2)ncc1N(C)c1cc2c(cn1)ncn2C ?
7.00 to 11.00

So what does the record say about pIC50 for CCc1cc(CC#N)ncc1N(C)c1cc2c(cn1)ncn2C ?
7.00 to 11.00

So what does the record say about pIC50 for CCc1cc(C(C)(C)O)ccc1N(C)c1cc2c(cn1)ncn2C ?
7.00 to 11.00

So what does the record say about pIC50 for CCc1ccccc1N(CCN1CCCC1)c1cc2c(cn1)ncn2C ?
6.30 to 7.00

So what does the record say about pIC50 for CCc1cc(C2=CCN(C(=O)C(C)OC)CC2)ccc1N(C)c1cc2c(cn1)ncn2C (stereo not shown) ?
7.00 to 11.00

So what does the record say about pIC50 for CCc1cc(C2CN(CCC(F)(F)F)C2)ncc1N(C)c1cc2c(cn1)ncn2C ?
6.30 to 7.00

So what does the record say about pIC50 for CCc1cc(C(=O)N(C)C)ccc1N(C)c1cc2c(cn1)ncn2C ?
6.30 to 7.00

So what does the record say about pIC50 for CCN(c1cccc(C(O)c2ccccc2)c1)c1cc2c(cn1)ncn2C (stereo not shown) ?
6.00 to 6.30

So what does the record say about pIC50 for CCc1cc(-c2cccnc2)ccc1N(C)c1cc2c(cn1)ncn2C ?
7.00 to 11.00

So what does the record say about pIC50 for COc1ccc(S(=O)(=O)N2CCCCC2)cc1N(C)c1cc2c(cn1)ncn2C ?
< 6.00

---

System: pSTAT1(2)-luciferase reporter in HeLa cells triggered with human OSM
test_details: JAK-STAT signalling assay
Format: cell-based
experimental_setup: Homo sapiens, HeLa, HeLa cells, pSTAT1(2)-luciferase reporter, human OSM 33 ng/mL; read-out: JAK-STAT IC50
endpoint_name: IC50

CCc1cc(CNS(=O)(=O)C(C)C)ccc1N(C)c1cc2c(cn1)ncn2C [Compound 245]    0.501 to 1 µM
CCc1cc(-c2cscn2)ccc1N(C)c1cc2c(cn1)ncn2C [Compound 150]    0.001 to 0.5 µM
CCc1cc(C2=CCN(C(=O)OC(C)(C)C)CC2)ccc1N(C)c1cc2c(cn1)ncn2C [Compound 154]    > 1 µM
CCc1cc(C2=CCN(C(=O)[C@@H](C)O)CC2)ccc1N(C)c1cc2c(cn1)ncn2C [Compound 248]    0.001 to 0.5 µM
CCc1cc(-c2ccc(C)s2)ncc1N(C)c1cc2c(cn1)ncn2C [Compound 311]    0.001 to 0.5 µM

So what does the record say about IC50 for CCc1cc(C(=O)NC)ccc1N(C)c1cc2c(cn1)ncn2C [Compound 85] ?
> 1 µM

So what does the record say about IC50 for CCc1cc(-c2cnn(CC)c2)ccc1N(C)c1cc2c(cn1)ncn2C [Compound 241] ?
0.001 to 0.5 µM

So what does the record say about IC50 for CCc1cc(CNC(=O)COC)ccc1N(C)c1cc2c(cn1)ncn2C [Compound 254] ?
> 1 µM

So what does the record say about IC50 for CCc1cc(CNS(=O)(=O)CC#N)ccc1N(C)c1cc2c(cn1)ncn2C [Compound 228] ?
0.001 to 0.5 µM

So what does the record say about IC50 for CCc1cc(C2=CCN(C(=O)NC#N)CC2)ccc1N(C)c1cc2c(cn1)ncn2C [Compound 203] ?
> 1 µM

So what does the record say about IC50 for CCc1ccccc1N(CC1CC1)c1cc2c(cn1)ncn2C [Compound 35] ?
> 1 µM
